# protocol: Cmax in Beagle dog at 5 mg/kg, po by LC/MS method
# Assay type: ADME, organism-based, Canis lupus familiaris
# Parameters: dose 5 mg/kg, route oral
# condition-context: in vivo
The entries below come with measured Cmax values attached.

compound	Cmax
COC(=O)N[C@H](C(=O)N1CCC[C@H]1c1ncc(-c2cc(F)c3c(c2)O[C@@H](c2ccc(C4CC4)s2)n2c-3cc3cc(-c4cnc([C@@H]5CCCN5C(=O)[C@@H](NC(=O)OC)C5C[C@@H](C)O[C@H](C)C5)[nH]4)ccc32)[nH]1)C(C)C (some centres undefined)	640 nM
COC(=O)N[C@H](C(=O)N1CCC[C@H]1c1ncc(-c2cc(F)c3c(c2)O[C@@H](c2ccc(C4CC4)s2)n2c-3cc3cc(-c4cnc([C@@H]5CCCN5C(=O)[C@@H](NC(=O)OC)C5C[C@@H](C)O[C@@H](C)C5)[nH]4)ccc32)[nH]1)C(C)C (some centres undefined)	330 nM
COC(=O)N[C@H](C(=O)N1CCC[C@H]1c1ncc(-c2cc(F)c3c(c2)O[C@@H](c2ccc(C4CC4)s2)n2c-3cc3cc(-c4cnc([C@@H]5CCCN5C(=O)[C@@H](NC(=O)OC)[C@@H]5CCOC(C)(C)C5)[nH]4)ccc32)[nH]1)C(C)C	660 nM
COC(=O)N[C@H](C(=O)N1CCC[C@H]1c1ncc(-c2cc(F)c3c(c2)O[C@@H](c2ccc(C4CC4)s2)n2c-3cc3cc(-c4cnc([C@@H]5CCCN5C(=O)[C@@H](NC(=O)OC)C5CCOCC5)[nH]4)ccc32)[nH]1)C(C)C	460 nM

###

# target-desc: Nonstructural protein 5A (Hepatitis C virus)
# Sequence (whole entry): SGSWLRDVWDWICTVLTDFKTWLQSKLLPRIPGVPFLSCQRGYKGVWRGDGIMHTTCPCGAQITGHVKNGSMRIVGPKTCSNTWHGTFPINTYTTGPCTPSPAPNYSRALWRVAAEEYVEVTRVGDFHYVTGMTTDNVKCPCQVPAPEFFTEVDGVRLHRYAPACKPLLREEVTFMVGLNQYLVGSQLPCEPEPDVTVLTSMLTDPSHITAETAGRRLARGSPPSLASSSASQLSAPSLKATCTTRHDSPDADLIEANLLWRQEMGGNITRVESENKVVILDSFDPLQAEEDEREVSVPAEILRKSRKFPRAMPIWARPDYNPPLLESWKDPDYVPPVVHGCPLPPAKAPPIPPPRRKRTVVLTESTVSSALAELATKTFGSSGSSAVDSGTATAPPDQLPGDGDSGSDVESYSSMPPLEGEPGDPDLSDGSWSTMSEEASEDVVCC
# protocol: Inhibition of NS5A L31M mutant in HCV genotype 2b infected in HuH7 replicon cells assessed as decrease in viral replication after 3 days by RT-PCR method
# Type: cell-based
# condition-context: Hepatitis C virus subtype 2b
observation-type: EC90 (nM)

compound	observation-type	reading
CCc1ccc([C@@H]2Oc3cc(-c4cnc([C@@H]5CCCN5C(=O)[C@@H](NC(=O)OC)C(C)C)[nH]4)cc(F)c3-c3cc4cc(-c5cnc([C@@H]6CCCN6C(=O)[C@@H](NC(=O)OC)[C@@H]6CCOC(C)(C)C6)[nH]5)ccc4n32)s1	EC90	0.028
COC(=O)N[C@H](C(=O)N1CCC[C@H]1c1ncc(-c2cc(F)c3c(c2)O[C@@H](c2ccc4c(c2)OCCC4)n2c-3cc3cc(-c4cnc([C@@H]5CCCN5C(=O)[C@@H](NC(=O)OC)[C@@H]5CCOC(C)(C)C5)[nH]4)ccc32)[nH]1)C(C)C	EC90	0.017
COC(=O)N[C@H](C(=O)N1CCC[C@H]1c1ncc(-c2cc(F)c3c(c2)O[C@@H](c2nc4c(s2)CCC4)n2c-3cc3cc(-c4cnc([C@@H]5CCCN5C(=O)[C@@H](NC(=O)OC)[C@@H]5CCOC(C)(C)C5)[nH]4)ccc32)[nH]1)C(C)C	EC90	0.174
CCc1ncc([C@@H]2Oc3cc(-c4cnc([C@@H]5CCCN5C(=O)[C@@H](NC(=O)OC)C(C)C)[nH]4)cc(F)c3-c3cc4cc(-c5cnc([C@@H]6CCCN6C(=O)[C@@H](NC(=O)OC)[C@@H]6CCOC(C)(C)C6)[nH]5)ccc4n32)s1	EC90	0.041
COC(=O)N[C@H](C(=O)N1CCC[C@H]1c1ncc(-c2ccc3c(c2)cc2n3[C@H](c3ccc4c(c3)OCCC4)Oc3cc(-c4cnc([C@@H]5CCCN5C(=O)[C@@H](NC(=O)OC)C5CCOCC5)[nH]4)cc(F)c3-2)[nH]1)C(C)C	EC90	0.005
COC(=O)N[C@H](C(=O)N1CCC[C@H]1c1ncc(-c2cc(F)c3c(c2)O[C@@H](c2ccc(C4CC4)s2)n2c-3cc3cc(-c4cnc([C@@H]5CCCN5C(=O)[C@@H](NC(=O)OC)C5CC6CCC(C5)O6)[nH]4)ccc32)[nH]1)C(C)C (stereo partly specified)	EC90	0.019
COC(=O)N[C@H](C(=O)N1CCC[C@H]1c1ncc(-c2cc(F)c3c(c2)O[C@@H](c2ccc4c(c2)O[C@@H](C)CC4)n2c-3cc3cc(-c4cnc([C@@H]5CCCN5C(=O)[C@@H](NC(=O)OC)[C@@H]5CCOC(C)(C)C5)[nH]4)ccc32)[nH]1)C(C)C	EC90	0.102
COC(=O)N[C@H](C(=O)N1CCC[C@H]1c1ncc(-c2cc(F)c3c(c2)O[C@@H](c2ccc4c(c2)OCCC4)n2c-3cc3cc(-c4cnc([C@@H]5CCCN5C(=O)[C@@H](NC(=O)OC)C5CCOCC5)[nH]4)ccc32)[nH]1)C(C)C	EC90	0.019
COC(=O)N[C@H](C(=O)N1CCC[C@H]1c1ncc(-c2cc(F)c3c(c2)O[C@@H](c2ccc(C(C)C)s2)n2c-3cc3cc(-c4cnc([C@@H]5CCCN5C(=O)[C@@H](NC(=O)OC)[C@@H]5CCOC(C)(C)C5)[nH]4)ccc32)[nH]1)C(C)C	EC90	0.038
COC(=O)N[C@H](C(=O)N1CCC[C@H]1c1ncc(-c2cc(F)c3c(c2)O[C@@H](c2ccc(C4CC4)s2)n2c-3cc3cc(-c4cnc([C@@H]5CCCN5C(=O)[C@@H](NC(=O)OC)C5CCOCC5)[nH]4)ccc32)[nH]1)C(C)C	EC90	0.014
COC(=O)N[C@H](C(=O)N1CCC[C@H]1c1ncc(-c2cc(F)c3c(c2)O[C@@H](c2ccc(C4CC4)s2)n2c-3cc3cc(-c4cnc([C@@H]5CCCN5C(=O)[C@@H](NC(=O)OC)C5CCO[C@@H](C)C5)[nH]4)ccc32)[nH]1)C(C)C (stereo partly specified)	EC90	0.023
COC(=O)N[C@H](C(=O)N1CCC[C@H]1c1ncc(-c2cc(F)c3c(c2)O[C@@H](c2ccc(C4CC4)s2)n2c-3cc3cc(-c4cnc([C@@H]5CCCN5C(=O)[C@@H](NC(=O)OC)C5C[C@@H](C)O[C@H](C)C5)[nH]4)ccc32)[nH]1)C(C)C (stereo partly specified)	EC90	0.012
COC(=O)N[C@H](C(=O)N1CCC[C@H]1c1ncc(-c2cc(F)c3c(c2)O[C@@H](c2cc4ccccc4s2)n2c-3cc3cc(-c4cnc([C@@H]5CCCN5C(=O)[C@@H](NC(=O)OC)C5CCOCC5)[nH]4)ccc32)[nH]1)C(C)C	EC90	0.057
COC(=O)N[C@H](C(=O)N1CCC[C@H]1c1ncc(-c2ccc3c(c2)cc2n3[C@H](c3ccc4c(c3)OCCN4C)Oc3cc(-c4cnc([C@@H]5CCCN5C(=O)[C@@H](NC(=O)OC)C5CCOCC5)[nH]4)cc(F)c3-2)[nH]1)C(C)C	EC90	0.054
CCCc1ccc([C@@H]2Oc3cc(-c4cnc([C@@H]5CCCN5C(=O)[C@@H](NC(=O)OC)C(C)C)[nH]4)cc(F)c3-c3cc4cc(-c5cnc([C@@H]6CCCN6C(=O)[C@@H](NC(=O)OC)C6CCOCC6)[nH]5)ccc4n32)s1	EC90	0.012
CC[C@@H]1CC([C@H](NC(=O)OC)C(=O)N2CCC[C@H]2c2ncc(-c3ccc4c(c3)cc3n4[C@H](c4ccc(C5CC5)s4)Oc4cc(-c5cnc([C@@H]6CCCN6C(=O)[C@@H](NC(=O)OC)C(C)C)[nH]5)cc(F)c4-3)[nH]2)C[C@H](CC)O1 (stereo partly specified)	EC90	2.7

###

# protocol: Drug level in Wistar Han rat at 10 mg/kg, po measured at 24 hrs by LC/MS method
# Assay type: ADME, organism-based
# condition-context: in vivo, read-out: Drug uptake

smiles-input	concentration at 24 h, nM
COC(=O)N[C@H](C(=O)N1CCC[C@H]1c1ncc(-c2cc(F)c3c(c2)O[C@@H](c2ccc(C(C)C)s2)n2c-3cc3cc(-c4cnc([C@@H]5CCCN5C(=O)[C@@H](NC(=O)OC)[C@@H]5CCOC(C)(C)C5)[nH]4)ccc32)[nH]1)C(C)C	4
CCc1ccc([C@@H]2Oc3cc(-c4cnc([C@@H]5CCCN5C(=O)[C@@H](NC(=O)OC)C(C)C)[nH]4)cc(F)c3-c3cc4cc(-c5cnc([C@@H]6CCCN6C(=O)[C@@H](NC(=O)OC)[C@@H]6CCOC(C)(C)C6)[nH]5)ccc4n32)s1	4
